system: HOP-92 NSCLC; test: NCI tumour cell line growth inhibition, 48 h
This section presents molecules with their documented TGI values.

Field: example entries. Status: answers known.
Cc1ccc(N=C2C(=O)C3=C(OC(C)(C)CC3)c3ccccc32)cc1 :: 3.2 µM
COc1cc[n+](C)cc1 :: > 100 µM
C=CC[C@H](C)CCC(=O)N1[C@H]2CC3CC[C@@]2(CS1(=O)=O)C3(C)C :: > 100 µM
COc1cccc(C(=O)C2C(=O)N(C)CCc3ccccc32)c1OC (stereo unspecified) :: > 100 µM
O=C1CCCCc2cccc(O)c21 :: > 100 µM
CC(=O)NC1=C(C)C(=O)c2c(nc3n2CCC3O)C1=N (stereo unspecified) :: 15.3 µM

Reported TGI ( CN(C)c1ccc(N=Nc2ccccn2)cc1 ) = > 100 µM

Lab note: measured TGI of S=c1[nH]c(=S)c2cc(Sc3ccc4[nH]c(=S)[nH]c(=S)c4c3)ccc2[nH]1 was 57.4 µM

For this molecule ( CC(C)=CCC/C(C)=C/CC/C(C)=C/CC/C(C)=C/CC/C(C)=C\CC/C(C)=C/CC/C(C)=C/CC/C(C)=C/Cc1cc(O)ccc1O ), measured TGI is > 32.8 µM

// TGI value for NNC(=O)CCC(=O)NC1C2CC3CC(C2)CC1C3 (stereo unspecified) : > 100 µM

The reported value for Oc1ccc(CCCCCCc2ccc(O)cc2)cc1 in terms of TGI is 20.5 µM
